Attribution: patent US4324728A

Recorded below: MIC, system Staphylococcus aureus FDA 209P.
Give the quantity in µg/mL, number only.

These solved cases illustrate the format of a correct answer.
[[record]]
compound = "CC1OC(CC(=O)O)CC2=C1C(=O)c1c(O)cccc1C2=O (stereo not shown)"
tested_system = "Staphylococcus aureus FDA 209P"
measured_value = 3.9

[[record]]
compound = "CC1OC(CC(N)=O)CC2=C1C(=O)c1c(O)cccc1C2=O (stereo not shown)"
tested_system = "Staphylococcus aureus FDA 209P"
measured_value = 6.3

[[record]]
compound = "CC(=O)Oc1cccc2c1C(=O)C1=C(CC(CC(=O)O)OC1C)C2=O (stereo not shown)"
tested_system = "Staphylococcus aureus FDA 209P"
measured_value = 1.6


Give Staphylococcus aureus FDA 209P MIC for COC(=O)CC1CC2=C(C(=O)c3c(O)cccc3C2=O)C(C)O1 (stereo not shown)
12.5

----------
experiment: Solubility; assay type: physicochemical; conditions: methanol, ethanol, ethylacetate, chloroform, acetone
MEASUREMENT_TYPE: Solubility in methanol, ethanol, ethylacetate, chloroform and acetone

[[record]]
molecule = "COC(=O)CC1CC2=C(C(=O)c3c(O)cccc3C2=O)C(C)O1 (stereo not shown)"
measured_value = "Soluble"

[[record]]
molecule = "CC(=O)Oc1cccc2c1C(=O)C1=C(CC(CC(=O)O)OC1C)C2=O (stereo not shown)"
measured_value = "Soluble"

[[record]]
molecule = "CC1OC(CC(N)=O)CC2=C1C(=O)c1c(O)cccc1C2=O (stereo not shown)"
measured_value = "Soluble"


----------
Recorded below: MIC, system Mycobacterium smegmatis ATCC 607.
Give the quantity in µg/mL, number only.

These solved cases illustrate the format of a correct answer.
[[record]]
molecule = "CC(=O)Oc1cccc2c1C(=O)C1=C(CC(CC(=O)O)OC1C)C2=O (stereo not shown)"
tested_system = "Mycobacterium smegmatis ATCC 607"
measured_value = 50

[[record]]
molecule = "CC1OC(CC(=O)O)CC2=C1C(=O)c1c(O)cccc1C2=O (stereo not shown)"
tested_system = "Mycobacterium smegmatis ATCC 607"
measured_value = 100

[[record]]
molecule = "COC(=O)CC1CC2=C(C(=O)c3c(O)cccc3C2=O)C(C)O1 (stereo not shown)"
tested_system = "Mycobacterium smegmatis ATCC 607"
measured_value = 12.5


Proceeding to the next molecule to report its MIC.
Field request: MIC | item: CC1OC(CC(N)=O)CC2=C1C(=O)c1c(O)cccc1C2=O (stereo not shown)
50

----------
Catalogue of compounds with associated MIC
tested on: Salmonella typhimurium; test: Minimal inhibitory concentration (agar); type: cell-based; conditions: Salmonella enterica, 48 h, nutrient agar, pH 7.0, 2 days, 37° C.

These solved cases illustrate the format of a correct answer.
[[record]]
compound = "COC(=O)CC1CC2=C(C(=O)c3c(O)cccc3C2=O)C(C)O1 (stereo not shown)"
tested_system = "Salmonella typhimurium"
measured_value = "> 100 µg/mL"

[[record]]
compound = "CC1OC(CC(=O)O)CC2=C1C(=O)c1c(O)cccc1C2=O (stereo not shown)"
tested_system = "Salmonella typhimurium"
measured_value = "100 µg/mL"

[[record]]
compound = "CC(=O)Oc1cccc2c1C(=O)C1=C(CC(CC(=O)O)OC1C)C2=O (stereo not shown)"
tested_system = "Salmonella typhimurium"
measured_value = "50 µg/mL"


Proceeding to the next compound to report its MIC.
Field request: MIC | item: CC1OC(CC(N)=O)CC2=C1C(=O)c1c(O)cccc1C2=O (stereo not shown)
> 100 µg/mL

----------
Recorded below: MIC, system Staphylococcus aureus FDA 209P (JC-1).
Give the quantity in µg/mL, number only.

These solved cases illustrate the format of a correct answer.
[[record]]
molecule = "CC1OC(CC(=O)O)CC2=C1C(=O)c1c(O)cccc1C2=O (stereo not shown) [Nanaomycin A, nanaomycin A]"
measured_value = 2

[[record]]
molecule = "CC(=O)Oc1cccc2c1C(=O)C1=C(CC(CC(=O)O)OC1C)C2=O (stereo not shown) [Acetylnanaomycin A, acetylnanaomycin A]"
measured_value = 0.8

[[record]]
molecule = "COC(=O)CC1CC2=C(C(=O)c3c(O)cccc3C2=O)C(C)O1 (stereo not shown) [Nanaomycin A methyl ester, nanaomycin A methyl ester]"
measured_value = 25


Proceeding to the next molecule to report its MIC.
Field request: MIC | item: CC1OC(CC(N)=O)CC2=C1C(=O)c1c(O)cccc1C2=O (stereo not shown) [Nanaomycin C, nanaomycin C]
3.1
